Quick reference for pKd among some binders
# Assay System: T1, Human TIGIT protein with HIS tag (human, UniProt Q495A1 22-141)
# T1 construct: A soluble analyte is probably only the extracellular part; also called human TIGIT recombinant protein; not shown: HIS tag
# T1 sequence: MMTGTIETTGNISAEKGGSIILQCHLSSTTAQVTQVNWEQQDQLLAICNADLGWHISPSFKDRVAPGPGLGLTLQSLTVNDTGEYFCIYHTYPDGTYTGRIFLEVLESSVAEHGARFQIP
# Procedure Text: SPR Biacore T200; antibody Fc-captured, TIGIT-His analyte
Remember, pKd is on a log scale: it is -log10 of the molar concentration.

The following binders have reported results that may help.
stdin: Assign pKd to the following record: 16F10H12C11 (antibody, V domains shown, Mouse monoclonal antibody; also called mouse anti-human TIGIT monoclonal antibody 16F10H12C11) VH: EVLLQQSGPELVKPGASVKIPCKASGYTFTDYNIDWVKQSHGKSLEWIGDINPNTGGTIYNQKFKGKATLTVDKSSSTAYMELRSLTSEDTAVYYCARRWLLLVYAVDYWGQGTSVTVSS VL: QIVLTQSPAIMSASPGEKVTISCSASSSVTYMYWYQQKAGSSPKPWIYRTSNLASGVPARFGGSGSGTSYSLTISSMEAEDAATYYCQQYHSFPPTFGGGTKLEIK
stdout: 7.74

stdin: Assign pKd to the following record: 139E2C2D2 (antibody, V domains shown, Mouse monoclonal antibody; also called mouse anti-human TIGIT monoclonal antibody 139E2C2D2) VH: EVQLVESGGDLVKPGGSLKLSCAASGFTFSSYGMSWVRQTPDKRLEWVAIISSGGNYTYYPDSVKGRFTISRDNAKNTLYLQMSSLKSEDTAMYYCARQIHYFFAMDYWGQGTSVTVSS VL: DIQMTQSPASLSVSVGETVTITCRASENIYSNLAWYQQKQGKSPQLLVYAATNLADGAPSRFSGSRSGTQYSLKINSLQSEDFGSYYCQHFWGTAYTFGGGTKLEIK
stdout: 8.52

stdin: Assign pKd to the following record: 121C2F10B5 (antibody, V domains shown, Mouse monoclonal antibody; also called mouse anti-human TIGIT monoclonal antibody 121C2F10B5) VH: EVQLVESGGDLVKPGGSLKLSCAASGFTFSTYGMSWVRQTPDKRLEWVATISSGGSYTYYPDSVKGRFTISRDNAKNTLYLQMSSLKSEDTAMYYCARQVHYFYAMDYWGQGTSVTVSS VL: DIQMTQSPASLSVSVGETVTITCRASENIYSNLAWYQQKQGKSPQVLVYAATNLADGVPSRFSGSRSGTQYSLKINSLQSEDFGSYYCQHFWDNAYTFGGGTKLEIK
stdout: 9.14

stdin: Assign pKd to the following record: 64G1E9B4 (antibody, V domains shown, Mouse monoclonal antibody; also called mouse anti-human TIGIT monoclonal antibody 64G1E9B4) VH: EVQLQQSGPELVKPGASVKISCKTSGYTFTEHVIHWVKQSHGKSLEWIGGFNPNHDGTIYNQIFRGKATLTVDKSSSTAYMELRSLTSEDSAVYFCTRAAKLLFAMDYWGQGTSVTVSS VL: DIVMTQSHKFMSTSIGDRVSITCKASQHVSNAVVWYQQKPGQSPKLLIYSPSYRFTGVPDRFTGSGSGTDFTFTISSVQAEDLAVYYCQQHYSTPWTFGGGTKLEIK
stdout: 9.64

Now look at this entry.
stdin: Assign pKd to the following record: 100C4E7D11 (antibody, V domains shown, Mouse monoclonal antibody; also called mouse anti-human TIGIT monoclonal antibody 100C4E7D11) VH: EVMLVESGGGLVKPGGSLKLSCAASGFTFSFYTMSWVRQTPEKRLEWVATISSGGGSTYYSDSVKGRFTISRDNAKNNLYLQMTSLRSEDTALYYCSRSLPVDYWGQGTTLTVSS VL: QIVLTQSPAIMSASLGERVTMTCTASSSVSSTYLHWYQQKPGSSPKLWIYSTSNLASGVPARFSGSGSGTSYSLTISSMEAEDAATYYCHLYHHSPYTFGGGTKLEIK
stdout: 9.29
